- experimental target: A*02:06
- experiment: SPR
The entries below come with measured pKd values attached.
Value format note: pKd is -log10 of concentration (mol/L); just state the number.

Solved entries:
AS170036 VL1VH1-57K108S (scFv) scFv: QSALTQPRSVSGSPGQSVTISCAGTSSDVGSENYVSWYQQHPGKAPKLMIYQVNKRASGVPDRFSGSKSGNTASLTISGLQAEDEADYYCASYRSSDHNIVFGGGTKLTVLGGGGSGGGGSGGGGSEVQLVESGGGLVQPGGSLRLSCAASGFTFSSYAMSWVRQAPGKGLEWVSTINSGTGKPYYADSVKGRFTISRDNSKNTLYLQMNSLRAEDTAVYYCAKNFFDGSWFLSPPAMDYWGQGTLVTVSSHHHHHH : 6.30
AS170036 VL1VH1-56N108A (scFv) scFv: QSALTQPRSVSGSPGQSVTISCAGTSSDVGSENYVSWYQQHPGKAPKLMIYQVNKRASGVPDRFSGSKSGNTASLTISGLQAEDEADYYCASYRSSDHNIVFGGGTKLTVLGGGGSGGGGSGGGGSEVQLVESGGGLVQPGGSLRLSCAASGFTFSSYAMSWVRQAPGKGLEWVSTINSGTNSPYYADSVKGRFTISRDNSKNTLYLQMNSLRAEDTAVYYCAKNFFDGSWFLAPPAMDYWGQGTLVTVSSHHHHHH : 6.49
AS170036 VL1VH1-57M98Q (scFv) scFv: QSALTQPRSVSGSPGQSVTISCAGTSSDVGSENYVSWYQQHPGKAPKLMIYQVNKRASGVPDRFSGSKSGNTASLTISGLQAEDEADYYCASYRSSDQNIVFGGGTKLTVLGGGGSGGGGSGGGGSEVQLVESGGGLVQPGGSLRLSCAASGFTFSSYAMSWVRQAPGKGLEWVSTINSGTGMPYYADSVKGRFTISRDNSKNTLYLQMNSLRAEDTAVYYCAKNFFDGSWFLGPPAMDYWGQGTLVTVSSHHHHHH : 6.24

*Q* Name the reported pKd value associated with the binder AS170036 VL1VH1-98I108A (scFv) scFv: QSALTQPRSVSGSPGQSVTISCAGTSSDVGSENYVSWYQQHPGKAPKLMIYQVNKRASGVPDRFSGSKSGNTASLTISGLQAEDEADYYCASYRSSDINIVFGGGTKLTVLGGGGSGGGGSGGGGSEVQLVESGGGLVQPGGSLRLSCAASGFTFSSYAMSWVRQAPGKGLEWVSTINSGTGSPYYADSVKGRFTISRDNSKNTLYLQMNSLRAEDTAVYYCAKNFFDGSWFLAPPAMDYWGQGTLVTVSSHHHHHH
*A* 6.48

*Q* Name the reported pKd value associated with the binder AS170036 VL1VH1-56Y98Q108S (scFv) scFv: QSALTQPRSVSGSPGQSVTISCAGTSSDVGSENYVSWYQQHPGKAPKLMIYQVNKRASGVPDRFSGSKSGNTASLTISGLQAEDEADYYCASYRSSDQNIVFGGGTKLTVLGGGGSGGGGSGGGGSEVQLVESGGGLVQPGGSLRLSCAASGFTFSSYAMSWVRQAPGKGLEWVSTINSGTYSPYYADSVKGRFTISRDNSKNTLYLQMNSLRAEDTAVYYCAKNFFDGSWFLSPPAMDYWGQGTLVTVSSHHHHHH
*A* 7.05

*Q* Name the reported pKd value associated with the binder AS170036 VL1VH1-56Y98I108S (scFv) scFv: QSALTQPRSVSGSPGQSVTISCAGTSSDVGSENYVSWYQQHPGKAPKLMIYQVNKRASGVPDRFSGSKSGNTASLTISGLQAEDEADYYCASYRSSDINIVFGGGTKLTVLGGGGSGGGGSGGGGSEVQLVESGGGLVQPGGSLRLSCAASGFTFSSYAMSWVRQAPGKGLEWVSTINSGTYSPYYADSVKGRFTISRDNSKNTLYLQMNSLRAEDTAVYYCAKNFFDGSWFLSPPAMDYWGQGTLVTVSSHHHHHH
*A* 7.16

*Q* Name the reported pKd value associated with the binder AS170036 VL1VH1 (scFv) scFv: QSALTQPRSVSGSPGQSVTISCAGTSSDVGSENYVSWYQQHPGKAPKLMIYQVNKRASGVPDRFSGSKSGNTASLTISGLQAEDEADYYCASYRSSDHNIVFGGGTKLTVLGGGGSGGGGSGGGGSEVQLVESGGGLVQPGGSLRLSCAASGFTFSSYAMSWVRQAPGKGLEWVSTINSGTGSPYYADSVKGRFTISRDNSKNTLYLQMNSLRAEDTAVYYCAKNFFDGSWFLGPPAMDYWGQGTLVTVSSHHHHHH
*A* 5.29

*Q* Name the reported pKd value associated with the binder AS170036 VL1VH1-56N98I (scFv) scFv: QSALTQPRSVSGSPGQSVTISCAGTSSDVGSENYVSWYQQHPGKAPKLMIYQVNKRASGVPDRFSGSKSGNTASLTISGLQAEDEADYYCASYRSSDINIVFGGGTKLTVLGGGGSGGGGSGGGGSEVQLVESGGGLVQPGGSLRLSCAASGFTFSSYAMSWVRQAPGKGLEWVSTINSGTNSPYYADSVKGRFTISRDNSKNTLYLQMNSLRAEDTAVYYCAKNFFDGSWFLGPPAMDYWGQGTLVTVSSHHHHHH
*A* 6.24
